For each record, write down the corresponding Activity.
- System: Rattus norvegicus
- test_description: Antidiabetic effect in streptozo-nicotinamide rat model of diabetes assessed as change in blood glucose level at 100 mg/kg, po after 7 hrs relative to control
- Type: functional
Answer with a number only, understood to be in %.

Indicate its recorded Activity; the molecule in question is COc1ccc(Cl)cc1C(=O)NCCc1ccc(S(=O)(=O)NC(=O)NC2CCCCC2)cc1 [GLYBURIDE] 55.4

Indicate its recorded Activity; the molecule in question is COc1ccc(S(=O)(=O)Nc2nc3ccc([N+](=O)[O-])cc3s2)cc1 29

Indicate its recorded Activity; the molecule in question is COc1ccc2nc(NS(=O)(=O)c3ccc([N+](=O)[O-])cc3)sc2c1 27.8

Indicate its recorded Activity; the molecule in question is COc1ccc2nc(NS(=O)(=O)c3ccccc3)sc2c1 53.2

Indicate its recorded Activity; the molecule in question is Cc1ccc2nc(NS(=O)(=O)c3ccc(Cl)cc3)sc2c1 21.4

Indicate its recorded Activity; the molecule in question is CC(=O)Nc1ccc(S(=O)(=O)Nc2nc3ccc([N+](=O)[O-])cc3s2)cc1 30

----------
- system_name: UniProtKB P28845
- Sequence (P28845 whole entry, looked up): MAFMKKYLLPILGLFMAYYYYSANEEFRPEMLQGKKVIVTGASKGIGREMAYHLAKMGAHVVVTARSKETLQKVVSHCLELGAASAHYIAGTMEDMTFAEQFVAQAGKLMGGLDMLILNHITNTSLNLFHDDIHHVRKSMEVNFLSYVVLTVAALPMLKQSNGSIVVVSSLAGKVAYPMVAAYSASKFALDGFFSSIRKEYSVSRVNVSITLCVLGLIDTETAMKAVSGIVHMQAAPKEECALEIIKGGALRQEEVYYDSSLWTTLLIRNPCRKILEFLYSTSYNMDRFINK
- test_description: Inhibition of human 11beta-HSD1 expressed in HEK293 cells at 10 uM by scintillation proximity assay
- Assay type: cell-based
For each record, write down the corresponding inhibition.
Answer with a number only, understood to be in %.

Indicate its recorded inhibition; the molecule in question is COc1ccc2nc(NS(=O)(=O)c3ccc([N+](=O)[O-])cc3)sc2c1 53.3

Indicate its recorded inhibition; the molecule in question is Cc1ccc2nc(NS(=O)(=O)c3ccc(Cl)cc3)sc2c1 27.2

Indicate its recorded inhibition; the molecule in question is CC(=O)Nc1ccc(S(=O)(=O)Nc2nc3ccc([N+](=O)[O-])cc3s2)cc1 7.69

Indicate its recorded inhibition; the molecule in question is Cc1ccc2nc(NS(=O)(=O)c3ccc([N+](=O)[O-])cc3)sc2c1 11.1

Indicate its recorded inhibition; the molecule in question is CCOc1ccc2nc(NS(=O)(=O)c3ccc(C)cc3)sc2c1 16.4

Indicate its recorded inhibition; the molecule in question is COc1ccc2nc(NS(=O)(=O)c3ccccc3)sc2c1 37.6

Indicate its recorded inhibition; the molecule in question is CCOc1ccc2nc(NS(=O)(=O)c3ccc([N+](=O)[O-])cc3)sc2c1 15.5

Indicate its recorded inhibition; the molecule in question is COc1ccc(S(=O)(=O)Nc2nc3ccc([N+](=O)[O-])cc3s2)cc1 25.6

----------
For each record, write down the corresponding Activity.
- Tested on: Rattus norvegicus
- test_description: Antidiabetic effect in streptozo-nicotinamide rat model of diabetes assessed as change in blood glucose level at 100 mg/kg, po after 1 hr relative to control
- Assay type: functional
Answer with a number only, understood to be in %.

Indicate its recorded Activity; the compound in question is CC(=O)Nc1ccc(S(=O)(=O)Nc2nc3ccc([N+](=O)[O-])cc3s2)cc1 37.2

Indicate its recorded Activity; the compound in question is COc1ccc(Cl)cc1C(=O)NCCc1ccc(S(=O)(=O)NC(=O)NC2CCCCC2)cc1 [GLYBURIDE] 78

Indicate its recorded Activity; the compound in question is Cc1ccc2nc(NS(=O)(=O)c3ccc(Cl)cc3)sc2c1 34

Indicate its recorded Activity; the compound in question is COc1ccc2nc(NS(=O)(=O)c3ccc([N+](=O)[O-])cc3)sc2c1 69.7

Indicate its recorded Activity; the compound in question is COc1ccc(S(=O)(=O)Nc2nc3ccc([N+](=O)[O-])cc3s2)cc1 77.1

Indicate its recorded Activity; the compound in question is COc1ccc2nc(NS(=O)(=O)c3ccccc3)sc2c1 78.1
